- Tested on: SNB75
- measurement.protocol: HSA synergy score (Combenefit); higher = more synergy
- experimental.parameters: exposure time: 72 h
The entries below are paired with their reported HSA synergy score.
Please state the value as a number alone, without comment.

Consider the following illustrative entries.
INSERT INTO assay_data (compound, endpoint_value) VALUES
  ('CCCCCCCCCCCC1=C(O)C(=O)C=C(O)C1=O [Embelin] + O=c1[nH]c2ccccc2n1C1CCN(Cc2ccc(-c3[nH]c4cc5ncnc5cc4nc3-c3ccccc3)cc2)CC1 [Akt inhibitor VIII]', 5.56),
  ('CO[C@H]1C[C@@H]2CC[C@@H](C)[C@@](O)(O2)C(=O)C(=O)N2CCCC[C@H]2C(=O)O[C@H]([C@H](C)C[C@@H]2CC[C@@H](O)[C@H](OC)C2)CC(=O)[C@H](C)/C=C(\C)[C@@H](O)[C@@H](OC)C(=O)[C@H](C)C[C@H](C)/C=C/C=C/C=C/1C [Rapamycin] + Cc1cc([C@@H](C)Nc2ccccc2C(=O)O)c2nc(N3CCOCC3)cc(=O)n2c1 [AZD6482]', 25.2);

Kindly consider the entry below.
Consider the compound CC(=O)O[C@@]12CO[C@@H]1C[C@H](O)[C@@]1(C)C(=O)[C@H](O)C3=C(C)[C@@H](OC(=O)[C@H](O)[C@@H](NC(=O)OC(C)(C)C)c4ccccc4)C[C@@](O)([C@@H](OC(=O)c4ccccc4)[C@H]21)C3(C)C [Docetaxel] + N#CC(c1ccnc(NCCc2cccnc2)n1)c1nc2ccccc2s1 [AS601245] and give its measured HSA synergy score.
10.1

---

The entries below are paired with their reported Bliss synergy score.
- Test system: U118
- measurement.protocol: Bliss synergy score (Combenefit); higher = more synergy; extreme values may be limits of the assay
- experimental.parameters: exposure time: 72 h
Please state the value as a number alone, without comment.

INSERT INTO assay_data (molecule, measurement_target, assay_metric, endpoint_value) VALUES
  ('C[C@@H](Oc1cc(-c2cnn(C3CCNCC3)c2)cnc1N)c1c(Cl)ccc(F)c1Cl [Crizotinib] + C=CCc1cccc(/C=N/NC(=O)CN2CCN(Cc3ccccc3)CC2)c1O [PAC-1]', 'U118', 'Bliss synergy score', 0.539);

Consider the molecule C=CCc1cccc(/C=N/NC(=O)CN2CCN(Cc3ccccc3)CC2)c1O [PAC-1] + CCOc1nc(NC(=O)Cc2cc(OC)ccc2OC)cc(N)c1C#N [JNK inhibitor VIII] and give its measured Bliss synergy score.
0.51

# repeat for CO[C@H]1C[C@@H]2CC[C@@H](C)[C@@](O)(O2)C(=O)C(=O)N2CCCC[C@H]2C(=O)O[C@H]([C@H](C)C[C@@H]2CC[C@@H](O)[C@H](OC)C2)CC(=O)[C@H](C)/C=C(\C)[C@@H](O)[C@@H](OC)C(=O)[C@H](C)C[C@H](C)/C=C/C=C/C=C/1C [Rapamycin] + CCOc1nc(NC(=O)Cc2cc(OC)ccc2OC)cc(N)c1C#N [JNK inhibitor VIII]
0

# repeat for C[C@@H](Oc1cc(-c2cnn(C3CCNCC3)c2)cnc1N)c1c(Cl)ccc(F)c1Cl [Crizotinib] + CCOc1nc(NC(=O)Cc2cc(OC)ccc2OC)cc(N)c1C#N [JNK inhibitor VIII]
5.36

# repeat for CCCCCCCCCCCC1=C(O)C(=O)C=C(O)C1=O [Embelin] + N#CC(c1ccnc(NCCc2cccnc2)n1)c1nc2ccccc2s1 [AS601245]
2.98

# repeat for Nc1ccn([C@@H]2O[C@H](CO)[C@@H](O)C2(F)F)c(=O)n1 [Gemcitabine] + Cc1cc([C@@H](C)Nc2ccccc2C(=O)O)c2nc(N3CCOCC3)cc(=O)n2c1 [AZD6482]
1.86

# repeat for CC(=O)O[C@@]12CO[C@@H]1C[C@H](O)[C@@]1(C)C(=O)[C@H](O)C3=C(C)[C@@H](OC(=O)[C@H](O)[C@@H](NC(=O)OC(C)(C)C)c4ccccc4)C[C@@](O)([C@@H](OC(=O)c4ccccc4)[C@H]21)C3(C)C [Docetaxel] + CCC(=O)N1CCN(c2ccc(-n3c(=O)ccc4cnc5ccc(-c6cnc7ccccc7c6)cc5c43)cc2C(F)(F)F)CC1 [Torin1]
0.102

# repeat for Nc1ccn([C@@H]2O[C@H](CO)[C@@H](O)C2(F)F)c(=O)n1 [Gemcitabine] + C=CCc1cccc(/C=N/NC(=O)CN2CCN(Cc3ccccc3)CC2)c1O [PAC-1]
0
